study.system: Cellular tumor antigen p53 (Homo sapiens) (UniProt P04637)
Sequence (P04637 whole entry, looked up): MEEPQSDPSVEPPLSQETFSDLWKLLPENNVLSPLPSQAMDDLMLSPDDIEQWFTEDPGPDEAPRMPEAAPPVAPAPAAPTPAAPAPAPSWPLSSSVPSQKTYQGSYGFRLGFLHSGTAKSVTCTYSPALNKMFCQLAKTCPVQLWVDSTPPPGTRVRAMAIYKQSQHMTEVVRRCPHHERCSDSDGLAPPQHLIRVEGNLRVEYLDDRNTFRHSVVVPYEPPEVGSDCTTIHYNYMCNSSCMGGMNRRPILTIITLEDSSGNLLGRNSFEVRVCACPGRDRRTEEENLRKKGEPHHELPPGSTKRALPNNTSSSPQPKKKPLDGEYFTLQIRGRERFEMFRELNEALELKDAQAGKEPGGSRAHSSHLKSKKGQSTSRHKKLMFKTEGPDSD
assay.explanation: TOX21_p53_BLA_p5_ratio: Tox21 HCT-116 p53 Agonism Beta-lactamase Assay, Ratio, Phase 5 (AID 2283599)
Inconclusive results are not listed. Active and inactive are the calls of the source. The calls were made as follows: active = hit-call score of the fitted dose curve at least 0.9, where 1 is the maximum; inconclusive = response in the unintended direction; inactive = score below 0.9.
// one of active, inactive, no free text

compound | answer.label
CCCC1COC(Cn2cncn2)(c2ccc(Cl)cc2Cl)O1 (configuration not stated) | inactive
COc1ccc(C(c2ccc(OC)cc2)C(Cl)(Cl)Cl)cc1 | inactive
CNC(=O)ON=CC(C)(C)SC | inactive

What call does the record list for CC1COC(Cn2cncn2)(c2ccc(Oc3ccc(Cl)cc3)cc2Cl)O1 (configuration not stated) ?
active

Which result was noted for this compound in the test: CO/C=C(/C(=O)OC)c1ccccc1Oc1cc(Oc2ccccc2C#N)ncn1
inactive

Can you look up the reported call for CC(C)(C)c1ccc(CSc2cnn(C(C)(C)C)c(=O)c2Cl)cc1 for me?
inactive

Called result for CCOC(=O)CC(SP(=S)(OC)OC)C(=O)OCC (configuration not stated)
inactive

What call does the record list for CCON=C(CC)C1=C(O)CC(c2c(C)cc(C)cc2C)CC1=O (configuration not stated) ?
inactive

----------
Read-out: Monocyte Chemoattractant Protein-1 (MCP1), CCL2 (gene 6347)
assay.explanation: BSK_4H_MCP1: BioMAP Diversity Plus: 4H Assay for Monocyte Chemoattractant Protein-1 (MCP1) Biomarker Activity (AID 2283018)
conditions: primary human endothelial cells (HUVEC); actives raise or lower the signal
Protocol: BSK_4H is a cell-based, multiplexed-readout assay that uses umbilical vein endothelium, a human vascular primary cell, with measurements taken at 24 hours after chemical dosing in a 96-well plate.BSK_4H_MCP1 is an assay component measured in the BSK_4H assay. It measures MCP-1 antibody related to regulation of gene expression using ELISA technology.Data from the assay component BSK_4H_MCP1 was analyzed into 1 assay endpoint. […]
Active and inactive are the calls of the source. How the source made its calls: active means hit-call score of the fitted dose curve at least 0.9, where 1 is the maximum; inactive means score below 0.9.
Can you answer with just one of these options? active, inactive

compound | answer.label
N#CC(CCc1ccc(Cl)cc1)(Cn1cncn1)c1ccccc1 (stereo unspecified) | inactive
CC1COC(Cn2cncn2)(c2ccc(Oc3ccc(Cl)cc3)cc2Cl)O1 (stereo unspecified) | active
CCNc1nc(Cl)nc(NCC)n1 | inactive

Outcome logged for C=CCC1=C(C)[C@@H](OC(=O)[C@@H]2[C@@H](C=C(C)C)C2(C)C)CC1=O in this assay:
active

Short answer needed: outcome of this test for CCc1nn(C)c(C(=O)NCc2ccc(C(C)(C)C)cc2)c1Cl ?
active

Assay outcome for CCOP(=S)(OCC)SCn1c(=O)oc2cc(Cl)ccc21 : what was it?
inactive

----------
assay.explanation: CCTE_Mundy_HCI_iCellGluta_NOG_NeuriteCount: CCTE's Neurite Outgrowth Assay in iCellGluta cells for Neurite Count, Mundy Lab (AID 2284342);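 also: chemical exposure about 48 hours starting 2 hours after plating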
Inconclusive results are not listed. The source made the active and inactive calls. How the source made its calls: active means hit-call score of the fitted dose curve at least 0.9, where 1 is the maximum; inconclusive means response in the unintended direction; inactive means score below 0.9.
Answer with one of the outcomes true (active), false (inactive)

compound | answer.label
COP(N)(=O)SC (stereo not given) | false
CO/C=C(/C(=O)OC)c1ccccc1Oc1cc(Oc2ccccc2C#N)ncn1 | true

Would you mind telling me which call this test gave COP(=S)(OC)Oc1nc(Cl)c(Cl)cc1Cl ?
true

// outcome(item) with item = CN(C)C(=S)SSC(=S)N(C)C
true

Fill in: this test's call for C=CC1(C)OC(=O)N(c2cc(Cl)cc(Cl)c2)C1=O (stereo not given) is ___
false

Fill in: this test's call for CCCCOC(=O)c1ccccc1C(=O)OCCCC is ___
false

Called result for N#Cc1nn(-c2c(Cl)cc(C(F)(F)F)cc2Cl)c(N)c1S(=O)C(F)(F)F (stereo not given)
false

Please indicate how the test categorized CCCCC(CC)COC(=O)c1ccccc1C(=O)OCC(CC)CCCC (stereo not given) .
true

Call for entry CCOc1cc(Oc2ccc(C(F)(F)F)cc2Cl)ccc1[N+](=O)[O-] :
true

Kindly provide the recorded test outcome for the following compound: CC(C)(C)c1ccc(CSc2cnn(C(C)(C)C)c(=O)c2Cl)cc1
true

----------
Read-out: Nuclear factor NF-kappa-B p105 subunit (Homo sapiens) (UniProt P19838)
Sequence (P19838 whole entry, looked up): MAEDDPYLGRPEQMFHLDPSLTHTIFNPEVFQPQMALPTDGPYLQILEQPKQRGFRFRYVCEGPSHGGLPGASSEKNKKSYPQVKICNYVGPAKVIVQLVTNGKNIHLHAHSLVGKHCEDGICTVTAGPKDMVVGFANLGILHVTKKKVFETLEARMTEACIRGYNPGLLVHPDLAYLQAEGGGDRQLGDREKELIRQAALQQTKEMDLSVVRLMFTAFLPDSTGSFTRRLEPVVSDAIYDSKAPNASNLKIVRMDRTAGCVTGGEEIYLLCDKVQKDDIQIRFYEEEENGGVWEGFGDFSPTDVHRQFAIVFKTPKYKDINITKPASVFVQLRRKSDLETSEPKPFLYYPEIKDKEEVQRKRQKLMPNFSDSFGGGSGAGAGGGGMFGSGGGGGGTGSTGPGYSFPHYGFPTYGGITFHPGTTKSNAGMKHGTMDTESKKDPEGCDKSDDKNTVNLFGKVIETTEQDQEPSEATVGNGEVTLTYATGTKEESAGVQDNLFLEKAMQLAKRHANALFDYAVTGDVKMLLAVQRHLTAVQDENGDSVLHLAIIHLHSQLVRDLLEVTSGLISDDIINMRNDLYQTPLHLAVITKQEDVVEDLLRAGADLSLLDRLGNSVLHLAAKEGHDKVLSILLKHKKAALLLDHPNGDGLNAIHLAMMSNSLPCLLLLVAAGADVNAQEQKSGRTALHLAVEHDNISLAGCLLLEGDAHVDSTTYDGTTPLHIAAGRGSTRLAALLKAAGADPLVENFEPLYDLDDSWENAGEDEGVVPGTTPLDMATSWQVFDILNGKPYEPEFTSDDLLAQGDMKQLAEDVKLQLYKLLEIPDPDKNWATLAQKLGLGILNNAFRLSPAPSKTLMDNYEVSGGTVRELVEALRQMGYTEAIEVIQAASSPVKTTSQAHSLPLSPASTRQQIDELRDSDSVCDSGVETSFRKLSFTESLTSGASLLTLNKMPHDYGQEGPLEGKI
assay.explanation: LTEA_HepaRG_NFKB1: Life Technologies and Expression Analysis (LTEA) Assay for Nuclear Factor Kappa B Subunit 1 (NFKB1) using HepaRG (AID 2283521)
conditions: mRNA level, 48 h; actives raise or lower the signal
Active and inactive are the calls of the source. The calls were made as follows: active = hit-call score of the fitted dose curve at least 0.9, where 1 is the maximum; inactive = score below 0.9.
Respond with a class label; see label 1 (active), label 0 (inactive)

molecule | answer.label
COC(=O)c1ccccc1C(=O)OC | label 0
Cc1c(F)c(F)c(COC(=O)C2C(/C=C(\Cl)C(F)(F)F)C2(C)C)c(F)c1F (configuration not stated) | label 0
N#CC(CCc1ccc(Cl)cc1)(Cn1cncn1)c1ccccc1 (configuration not stated) | label 0
C=CC1(C)OC(=O)N(c2cc(Cl)cc(Cl)c2)C1=O (configuration not stated) | label 0
C=CCC1=C(C)C(OC(=O)C2C(C=C(C)C)C2(C)C)CC1=O (configuration not stated) | label 0
CC(C)C1(C)N=C(c2nc3ccccc3cc2C(=O)O)NC1=O (configuration not stated) | label 0

Check the results log: what was the call for CCNc1nc(Cl)nc(NC(C)C)n1 ?
label 0

Per the records of this test, what outcome belongs to CON(C)C(=O)Nc1ccc(Cl)c(Cl)c1 ?
label 0

// return assay outcome for CCc1nn(C)c(C(=O)NCc2ccc(C(C)(C)C)cc2)c1Cl
label 0

Name the outcome recorded for N#Cc1cc(Br)c(O)c(Br)c1 in the assay.
label 1

What call does the record list for CCON=C(CC)C1=C(O)CC(c2c(C)cc(C)cc2C)CC1=O (configuration not stated) ?
label 0

For O=C(Nc1ccccc1)Nc1ccnc(Cl)c1 , what call appears in the results of this test?
label 1

----------
assay.explanation: CCTE_Shafer_MEA_acute_spike_number: CCTE's Neural Acute Assay for Total Number of Spikes, Shafer Lab (AID 2284008)
The source made the active and inactive calls. The calls were made as follows: active = hit-call score of the fitted dose curve at least 0.9, where 1 is the maximum; inactive = score below 0.9.
Give one outcome, nothing more. List: active, inactive

As a guide, the following entries are already answered.
compound | answer.label
N#CC(CCc1ccc(Cl)cc1)(Cn1cncn1)c1ccccc1 (stereo not given) | inactive
Fc1ccc(Oc2ccnc3cc(Cl)cc(Cl)c23)cc1 | inactive
O=C(O)c1nc(Cl)ccc1Cl | inactive
COP(N)(=O)SC (stereo not given) | inactive

// switching to the query compound
How was CC(C)(C)c1ccc(CSc2cnn(C(C)(C)C)c(=O)c2Cl)cc1 classified in this test?
active

----------
Read-out: Bcl-2 (BID) gene, BID (gene 637)
assay.explanation: LTEA_HepaRG_BID: Life Technologies and Expression Analysis (LTEA) Assay for Bcl-2 (BID) gene using HepaRG (AID 2283476)
conditions: mRNA level, 48 h; actives raise or lower the signal
The source made the active and inactive calls. How the source made its calls: active means hit-call score of the fitted dose curve at least 0.9, where 1 is the maximum; inactive means score below 0.9.
Valid outcomes are listed here; reply with one: active, inactive

molecule | answer.label
C#CCOS(=O)OC1CCCCC1Oc1ccc(C(C)(C)C)cc1 (configuration not stated) | active

Hi team, can someone confirm the assay call for CNC(=S)S ?
inactive

I would be grateful if you could indicate the recorded call for COP(N)(=O)SC (configuration not stated) .
inactive

State the result this test recorded for N#Cc1cc(Br)c(O)c(Br)c1 .
inactive

Which outcome was assigned to CCCCNC(=O)n1c(NC(=O)OC)nc2ccccc21 in this test?
inactive

Returns: the outcome recorded for COC(=O)C(C)Oc1ccc(Oc2ccc(Cl)cc2Cl)cc1 (configuration not stated) in this assay.
inactive

// outcome(item) with item = N#Cc1nn(-c2c(Cl)cc(C(F)(F)F)cc2Cl)c(N)c1S(=O)C(F)(F)F (configuration not stated)
inactive

Dear all, I need the recorded test outcome for N#CC(CCc1ccc(Cl)cc1)(Cn1cncn1)c1ccccc1 (configuration not stated) , thank you.
inactive

How was C=CCC1=C(C)[C@@H](OC(=O)[C@@H]2[C@@H](C=C(C)C)C2(C)C)CC1=O classified in this test?
inactive

----------
Read-out: Glutamate-cysteine ligase regulatory (GCLM), GCLM (gene 2730)
assay.explanation: LTEA_HepaRG_GCLM: Life Technologies and Expression Analysis (LTEA) Assay for Glutamate-cysteine ligase regulatory (GCLM) using HepaRG (AID 2283500)
conditions: mRNA level, 48 h; actives raise or lower the signal
Activity calls are given as the source filed them. How the source made its calls: active means hit-call score of the fitted dose curve at least 0.9, where 1 is the maximum; inactive means score below 0.9.
The reply should be one of these categories: active, inactive

// known answers, use as guide
molecule | answer.label
N#Cc1nn(-c2c(Cl)cc(C(F)(F)F)cc2Cl)c(N)c1S(=O)C(F)(F)F (stereo not given) | active
COC(=O)N(OC)c1ccccc1COc1ccn(-c2ccc(Cl)cc2)n1 | active
Cc1cc(Cl)ccc1OCC(=O)O | inactive
CCON=C(CC)C1=C(O)CC(c2c(C)cc(C)cc2C)CC1=O (stereo not given) | inactive

Now look at this entry.
Name the outcome recorded for CCc1nn(C)c(C(=O)NCc2ccc(C(C)(C)C)cc2)c1Cl in the assay.
active

----------
assay.explanation: ACEA_AR_antagonist_AUC_viability: ACEA Biosciences xCELLigence Real-Time Cell Analysis on Androgen Receptor Antagonism for Viability (AID 2283776);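 also: 22Rv1 human prostate cancer cells growing on impedance electrode plates; area under impedance growth curve at 80 h after dosing as viability; hits lower the growth signal relative to DMSO meaning cytotoxicity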
Inconclusive results are not listed. Calls of active or inactive are those of the source. Rule for the calls: active = hit-call score of the fitted dose curve at least 0.9, where 1 is the maximum; inconclusive = response in the unintended direction; inactive = score below 0.9.
// allowed return values: label 1 for active, label 0 for inactive

compound | answer.label
Oc1ccccc1-c1ccccc1 | label 1
C#CCOS(=O)OC1CCCCC1Oc1ccc(C(C)(C)C)cc1 (stereo not given) | label 1

Which outcome was entered for the compound Cc1c(F)c(F)c(COC(=O)C2C(/C=C(\Cl)C(F)(F)F)C2(C)C)c(F)c1F (stereo not given) in this test?
label 1

Any idea what this test logged for CO/C=C(/C(=O)OC)c1ccccc1Oc1cc(Oc2ccccc2C#N)ncn1 ?
label 1

Call for entry CCCC1COC(Cn2cncn2)(c2ccc(Cl)cc2Cl)O1 (stereo not given) :
label 1
